# Test system: RAW-Dual
# measurement-protocol: NF-kB SEAP reporter activity, fold change vs agonist alone; cytotoxicity flag (confluency mask): not cytotoxic; higher = enhanced NF-kB activity
# measurement-parameters: agonist: LPS (TLR4) 0.1 ug/mL
Over roughly 2,900 compounds, “NF-kB SEAP reporter activity, fold change vs agonist alone” has its median near 0.99; the highest 2% begin near 2.6. This excerpt belongs to a sample that is enriched for the highest values.
Field: NF-kB SEAP reporter activity. Provide a value for each of the compounds that follow.
Returns: the value as a bare number; no unit string appended.

What measured NF-kB SEAP reporter activity goes with CCC(Nc1ncnc2[nH]cnc12)c1oc2ccccc2c(=O)c1-c1cccc(F)c1 (stereo not given) (library stock concentration (final ~1000-fold dilution): 10 mM) ? 0.907

Now try CCCC(=O)Nc1ccc(OCC(O)CNC(C)C)c(C(C)=O)c1.Cl (stereo not given) (library stock concentration (final ~1000-fold dilution): 10 mM) . 1.54

How about O=C1C(CCC(O)c2ccc(F)cc2)C(c2ccc(O)cc2)N1c1ccc(F)cc1 (stereo not given) (library stock concentration (final ~1000-fold dilution): 10 mM) ? 1.42

Ok, now CN1CC(=O)N2C(Cc3c([nH]c4ccccc34)C2c2ccc3c(c2)OCO3)C1=O (stereo not given) (library stock concentration (final ~1000-fold dilution): 10 mM) 1.17

Also check Cc1cc(N2CCOCC2)ccc1Nc1nc(NC2CCCCC2)c2nc[nH]c2n1 (library stock concentration (final ~1000-fold dilution): 10 mM) 1.44

Record: CCCCCOc1ccc(-c2cc(-c3ccc(C(=O)NC4CC(O)C(O)NC(=O)C5C(O)C(C)CN5C(=O)C(C(O)CC(N)=O)NC(=O)C(C(O)C(O)c5ccc(O)c(OS(=O)(=O)O)c5)NC(=O)C5CC(O)CN5C(=O)C(C(C)O)NC4=O)cc3)no2)cc1 (stereo not given) (library stock concentration (final ~1000-fold dilution): 10 mM water) 1.2

Please give the result for Cc1nc(Nc2ncc(C(=O)Nc3c(C)cccc3Cl)s2)cc(N2CCN(CCO)CC2)n1.O (library stock concentration (final ~1000-fold dilution): 10 mM) too. 1.33

// same read-out, input: CO/N=C(\C(=O)NC1C(=O)N2C(C(=O)O)=C(CSc3nnnn3C)CSC12)c1csc(N)n1.CO/N=C(\C(=O)NC1C(=O)N2C(C(=O)O)=C(CSc3nnnn3C)CSC12)c1csc(N)n1.Cl (stereo not given) (library stock concentration (final ~1000-fold dilution): 10 mM) 0.999

Consider next the compound O=C(OC1OC2COC(=O)c3cc(O)c(O)c(O)c3-c3c(cc(O)c(O)c3O)C(=O)OC(C2O)C1O)c1cc(O)c(O)c(O)c1 (stereo not given) (library stock concentration (final ~1000-fold dilution): 10 mM) in the same way. 1.34

Follow-up entry: O=C(O)CCCN1CCC(OC(c2ccc(Cl)cc2)c2ccccn2)CC1 (stereo not given) (library stock concentration (final ~1000-fold dilution): 10 mM) 0.969

----------
# System: RAW-Dual
# measurement-protocol: NF-kB SEAP reporter activity, fold change vs agonist alone; cytotoxicity flag (confluency mask): not cytotoxic; higher = enhanced NF-kB activity
# measurement-parameters: agonist: Pam3CSK4 (TLR2/1) 0.1 ug/mL
The full ranking holds about 2,900 compounds; the median of “NF-kB SEAP reporter activity, fold change vs agonist alone” is about 0.99, and the highest 2% start at about 2.6. What follows is part of a selection rich in the highest values, with near analogues and random picks from the rest.
reported-metric: NF-kB SEAP reporter activity
Please state the value as a number alone, without comment.

Value lookup for NF-kB SEAP reporter activity; key = C=CC(=O)N1CC/C(=C\c2ccc(F)c([N+](=O)[O-])c2)C(=O)/C(=C/c2ccc(F)c([N+](=O)[O-])c2)C1 (library stock concentration (final ~1000-fold dilution): 10 mM) 0.144

Repeat for the following molecule: Cc1c(C(=O)Nc2ccc(N3CC(C)OC(C)C3)nc2)cccc1-c1ccc(OC(F)(F)F)cc1 (centres undefined) (library stock concentration (final ~1000-fold dilution): 10 mM) 1.12

Please answer likewise for COc1cnc(NS(=O)(=O)c2ccc(N)cc2)nc1 (library stock concentration (final ~1000-fold dilution): 10 mM) 1.19

Similarly, COc1ccccc1Oc1c(NS(=O)(=O)c2ccc(C(C)(C)C)cc2)nc(-c2ncccn2)nc1OCCO.O (library stock concentration (final ~1000-fold dilution): 10 mM) ? 1.1

----------
Would you kindly list NF-kB SEAP reporter activity for each of these compounds?
# Test system: RAW-Dual
# measurement-protocol: NF-kB SEAP reporter activity, fold change vs agonist alone; cytotoxicity flag (confluency mask): cytotoxic (confluency <70% of control); higher = enhanced NF-kB activity
# measurement-parameters: agonist: ODN 1826 (TLR9) 0.5 ug/mL
Over roughly 2,900 compounds, “NF-kB SEAP reporter activity, fold change vs agonist alone” has its median near 0.99; the highest 2% begin near 2.6. Many of the other results were omitted from the sample, so the highest values are more common in it than they were.
The answer should be written as a number, with no unit following it.

Sample C=CC1CC1(NC(=O)C1CC(Oc2ncc(OC)c3ccc(Cl)cc23)CN1C(=O)C(NC(=O)OC(C)(C)C)C(C)(C)C)C(=O)NS(=O)(=O)C1CC1 (stereo not given) (library stock concentration (final ~1000-fold dilution): 10 mM) — what was its NF-kB SEAP reporter activity? 0.915

What about CC/C=C\C/C=C\C/C=C\C/C=C\C/C=C\C/C=C\CCC(=O)NCCNC(=O)c1ccccc1O (library stock concentration (final ~1000-fold dilution): 10 mM) ? 0.298

And the next one, COc1cc2nccc(Oc3ccc(NC(=O)Nc4ccc(F)cc4F)c(F)c3)c2cc1OC (library stock concentration (final ~1000-fold dilution): 10 mM) ? 0.587

// next record CC(=O)c1ccc2c(c1)c1cc(C(C)=O)ccc1n2CCNC(C)C.Cl (library stock concentration (final ~1000-fold dilution): 10 mM) 0.209

// repeat for CC(C)c1cnn2c(NCc3ccccc3)cc(NCCCCCCN)nc12.Cl (library stock concentration (final ~1000-fold dilution): 10 mM) and report 0.234

----------
Could you please report measured NF-kB SEAP reporter activity for the items listed next?
# Test system: RAW-Dual
# measurement-protocol: NF-kB SEAP reporter activity, fold change vs agonist alone; cytotoxicity flag (confluency mask): cytotoxic (confluency <70% of control); higher = enhanced NF-kB activity
# measurement-parameters: agonist: Pam2CSK4 (TLR2/6) 0.1 ug/mL
Whole data set: some 2,900 compounds, median “NF-kB SEAP reporter activity, fold change vs agonist alone” near 0.99, cut for the highest 2% near 2.6. The list comes from a sample in which the highest values are over-represented; it also holds close analogues and randomly drawn compounds.
A bare number is all that is needed in reply.

Quick check: NF-kB SEAP reporter activity of CCOc1cc(C(=O)N2CCC(N3CCN(C)CC3)CC2)ccc1Nc1ncc2c(n1)N(C1CCCC1)c1ccccc1C(=O)N2C (library stock concentration (final ~1000-fold dilution): 10 mM) ? 1.36

Would you mind doing CC(C)CNc1ccnc(NCc2csc(-c3ccccc3)n2)n1.Cl (library stock concentration (final ~1000-fold dilution): 10 mM) as well? 0.625

Same question for CCC1(O)CC2CN(CCc3c([nH]c4ccccc34)C(C(=O)OC)(c3cc4c(cc3OC)N(C)C3C(O)(C(=O)OC)C(OC(C)=O)C5(CC)C=CCN6CCC43C65)C2)C1.O=S(=O)(O)O (centres undefined) (library stock concentration (final ~1000-fold dilution): 10 mM) please. 1.48

Item: C=Cc1c(C)c2cc3nc(cc4[nH]c(cc5nc(cc1[nH]2)C(C)=C5CCC(=O)O)c(CCC(=O)OC)c4C)C1(C)C3=CC=C(C(=O)OC)C1C(=O)OC (centres undefined) (library stock concentration (final ~1000-fold dilution): 10 mM) 0.193

What about Oc1c(Cl)cc(Cl)cc1Sc1cc(Cl)cc(Cl)c1O (library stock concentration (final ~1000-fold dilution): 10 mM) ? 0.362

One more molecule: COc1cc(N2CCC(N)CC2)ccc1Nc1ncc(Cl)c(-c2c[nH]c3ccccc23)n1 (library stock concentration (final ~1000-fold dilution): 10 mM) 0.0626

Follow-up entry: CCCCCCCCCCCCCCCCCC[N+](C)(C)C (library stock concentration (final ~1000-fold dilution): 10 mM) 0.699

Follow-up entry: COc1ccc(C=Cc2cc(OC)c(OC)c(OC)c2)cc1OP(=O)(O)O (library stock concentration (final ~1000-fold dilution): 10 mM water) 2.34

Do the same for Cl.Cl.O=c1cc(CN2CCOCC2)occ1OCCCCCSc1ccnc2cc(C(F)(F)F)ccc12 (library stock concentration (final ~1000-fold dilution): 10 mM) please 0.59

----------
# Test system: RAW-Dual
# measurement-protocol: NF-kB SEAP reporter activity, fold change vs agonist alone; cytotoxicity flag (confluency mask): not cytotoxic; higher = enhanced NF-kB activity
# measurement-parameters: agonist: ODN 1826 (TLR9) 0.5 ug/mL
The full ranking holds about 2,900 compounds; the median of “NF-kB SEAP reporter activity, fold change vs agonist alone” is about 0.99, and the highest 2% start at about 2.6. This excerpt belongs to a sample that is enriched for the highest values.
For each entry below, report its NF-kB SEAP reporter activity value.
Respond numerically, and do not add a unit to the figure.

What does the data say about its NF-kB SEAP reporter activity? Entry: O=C(Nc1ccccc1)c1cc([N+](=O)[O-])ccc1Cl (library stock concentration (final ~1000-fold dilution): 10 mM) 0.873

Try CO/N=C(\C(=O)NC1C(=O)N2C(C(=O)O)=C(CSc3nnnn3C)CSC12)c1csc(N)n1.CO/N=C(\C(=O)NC1C(=O)N2C(C(=O)O)=C(CSc3nnnn3C)CSC12)c1csc(N)n1.Cl (stereo not given) (library stock concentration (final ~1000-fold dilution): 10 mM) next. 0.966

Now this one: Nc1nc2cc(-c3ccc4ncc(C(=O)N5CCOCC5)n4c3)ccc2o1 (library stock concentration (final ~1000-fold dilution): 10 mM) 1.02

Now give it for COc1ncc(-c2ccc3nccc(-c4ccnnc4)c3c2)cc1NS(=O)(=O)c1ccc(F)cc1F (library stock concentration (final ~1000-fold dilution): 10 mM) too. 0.959

Quick one: Cn1cc(CC(N)C(=O)O)c2ccccc21 (stereo not given) (library stock concentration (final ~1000-fold dilution): 2 mM) 1.22
